target system: T1, hGCGR-mmh (human)
T1 construct: also called REGN547; monovalent hGCGR
T1 chain: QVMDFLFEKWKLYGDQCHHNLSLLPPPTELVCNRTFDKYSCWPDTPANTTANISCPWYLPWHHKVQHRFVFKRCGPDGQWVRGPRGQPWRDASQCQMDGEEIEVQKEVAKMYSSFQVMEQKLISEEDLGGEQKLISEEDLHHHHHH
protocol details: SPR Biacore T100, 37C, mAb captured, antigen flowed
log10(Kd) by entry:
Hey, these are logged values: log10 of Kd, nM being the unit before logging.

# annotated cases, reported log10(Kd) shown
# binder, log10(Kd)
measured = [
    ("H4H1331P (antibody, V domains shown, Fully human anti-GCGR antibody; the controls are called isotype-matched hIgG4) VH: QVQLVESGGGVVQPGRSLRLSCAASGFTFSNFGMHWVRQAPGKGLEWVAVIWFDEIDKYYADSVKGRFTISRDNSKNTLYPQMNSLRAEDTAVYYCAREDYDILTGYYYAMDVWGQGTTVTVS VL: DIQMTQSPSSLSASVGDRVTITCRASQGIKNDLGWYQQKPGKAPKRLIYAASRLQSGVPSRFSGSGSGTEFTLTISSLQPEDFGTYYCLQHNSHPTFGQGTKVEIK", -0.27),
    ("H4H1339P (antibody, V domains shown, Fully human anti-GCGR antibody; the controls are called isotype-matched hIgG4) VH: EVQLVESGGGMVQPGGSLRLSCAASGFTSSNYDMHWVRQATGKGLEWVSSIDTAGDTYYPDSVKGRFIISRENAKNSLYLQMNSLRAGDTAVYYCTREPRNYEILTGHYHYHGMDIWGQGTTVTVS VL: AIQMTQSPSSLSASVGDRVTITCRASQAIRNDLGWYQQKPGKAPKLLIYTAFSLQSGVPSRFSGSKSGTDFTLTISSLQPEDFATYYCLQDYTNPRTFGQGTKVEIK", 0.69),
    ("H4H1765N (antibody, V domains shown, Anti-GCGR antibody from hybridoma; the controls are called isotype-matched hIgG4) VH: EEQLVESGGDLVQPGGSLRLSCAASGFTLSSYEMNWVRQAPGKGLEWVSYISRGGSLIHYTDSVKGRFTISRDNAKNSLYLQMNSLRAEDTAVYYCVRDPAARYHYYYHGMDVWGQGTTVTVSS VL: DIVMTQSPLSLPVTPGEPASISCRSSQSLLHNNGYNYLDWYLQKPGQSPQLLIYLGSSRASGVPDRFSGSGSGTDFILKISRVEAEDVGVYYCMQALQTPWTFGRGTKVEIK", -0.60),
    ("H4H1321P (antibody, V domains shown, Fully human anti-GCGR antibody; the controls are called isotype-matched hIgG4) VH: QVQLVESGGGVVQPGRSLRLSCAASGFTFSSYDMHWVRQAPGKGLEWVAVISSDGRDKYYVDSVKGRFTISRDNSKNTLYLQMNSLRAEDTAVYYCAKEMVYYDILTGYHNYYGMDVWGQGTTVTVS VL: DIQMTQSPSSLSASVGDRVTITCRASQGINNYLAWFQQKPGKAPKSLIHTASSLQSGVPSKFSGSGSGTDFTLTISSLQPEDFATYYCQQYNTYPLTFGGGTKVEIK", 1.11),
    ("H4H1327P (antibody, V domains shown, also called anti-GCGR (hIgG4) antibody designated H4H1327P) VH: EVQLVESGGGLVQPGGSLRLSCAASGFTFSNYLMNWVRQAPGKGLEWLANIQEDGIEKYYVDSVKGRFTISRDNAKNSLYLQMNSLRAEDTAVYYCAREPSHYDILTGYDYYYGMDVWGQGTTVTVS VL: DIQMTQSPSSLSASVGDRVTITCRASQGIRNDLGWYQQKPGKAPKRLIYAASSLQSGVPSRFSGSGSGTEFILTVSSLQPEDFATYYCLQYNSNPFTFGPGTKVDIK", 0.13),
]

Endpoint output: log10(Kd) of H4H1328P (antibody, V domains shown, Fully human anti-GCGR antibody; the controls are called isotype-matched hIgG4) VH: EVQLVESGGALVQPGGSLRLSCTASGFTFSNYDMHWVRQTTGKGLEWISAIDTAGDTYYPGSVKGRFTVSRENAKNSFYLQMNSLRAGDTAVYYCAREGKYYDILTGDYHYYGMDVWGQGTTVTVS VL: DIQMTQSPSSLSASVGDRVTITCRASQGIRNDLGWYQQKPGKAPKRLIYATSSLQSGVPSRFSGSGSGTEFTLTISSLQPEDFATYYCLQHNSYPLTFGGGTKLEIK . Value?
0.82
